Exercise: for every item that follows, state its recorded GI50.
Tested on: SK-OV-3 ovarian
Test summary: NCI tumour cell line growth inhibition, 48 h

Exercise: Quote GI50 reported for CN(C)CCN1C(=O)c2ccccc2N(C)c2ccccc21 please.
Key: > 100 µM

Exercise: Quote GI50 reported for COc1c(C)c2c(c(O)c1C/C=C(\C)CCC(=O)O)C(=O)OC2 please.
Key: 0.571 µM

Exercise: Quote GI50 reported for COc1cc([N+](=O)[O-])c(OC)cc1-c1nc2sc(Cl)cn2c1/C(N)=N/C(=N)N please.
Key: 23.7 µM

Exercise: Quote GI50 reported for C[C@H]1[C@H](C)CC[C@]2(CO)CC[C@]3(C)C(=CC[C@@H]4[C@@]5(C)CCCNC(C)(C)[C@@H]5CC[C@]43C)[C@H]12 please.
Key: 2.54 µM

Exercise: Quote GI50 reported for C#Cc1c(F)ccc2cc(O)cc(-c3ncc4c(N5CC6CCC(C5)N6)nc(OC[C@@]56CCCN5C[C@H](F)C6)nc4c3F)c12 please.
Key: 17.7 µM

Exercise: Quote GI50 reported for COc1cc2c(cc1C)NC(=O)/C2=C/c1ccccn1 please.
Key: 3.41 µM

Exercise: Quote GI50 reported for CCC(C)(CC(C)(C)C(=O)NCC(=O)NC(Cc1ccccc1)C(=O)NC(Cc1ccccc1)C(=O)NCC(=O)NC1CC(OC2CC(O)(C(=O)CO)Cc3c(O)c4c(c(O)c32)C(=O)c2c(OC)cccc2C4=O)OC(C)C1O)C(=O)NCC(C)O (configuration not stated) please.
Key: > 150 µg/mL
